# Test system: Nanoluciferase (engineered Oplophorus gracilirostris luciferase)
# TEST_SUMMARY: Primary Nanoluciferase (NLuc) qHTS assay for identification of artifact compounds. (AID 1845222)
# TEST_CONDITIONS: NLuc-conditioned medium, Nano-Glo luminescence, 5 min; series mostly up to 54.1 µM
Activity calls are given as the source filed them. The call rests on the fitted dose curve; in most records, active means well fitted inhibition curve with a large enough effect; inconclusive means small, poorly fitted or top-dose-only effect; inactive means flat fitted curve, though single readings scatter.
// allowed return values: yes = active, no = inactive

Query block: Dear colleague, could you share the recorded outcome for "C1Cc2[nH]nc(-c3nn[nH]n3)c2C1" when you have a moment?
Result block: no

Query block: Query: recorded result category for "O=C(Nc1cn[nH]c1-c1nc2ccc(CN3CCOCC3)cc2[nH]1)NC1CC1" in this test
Result block: no

Query block: Given "Nc1nccc(Oc2ccc(NC(=O)c3c[nH]cc(-c4ccc(F)cc4)c3=O)cc2F)c1Cl" , state the outcome it received in this test.
Result block: no

Query block: Which outcome was assigned to "CC(C)(O)c1cc2nc(-c3cnc(N)nc3)nc(N3CCOCC3)c2s1" in this test?
Result block: no

Query block: What outcome does the record of this test show for "Cc1cnc(-c2cnc(NCCNc3ccc(C#N)cn3)nc2-c2ccc(Cl)cc2Cl)[nH]1" ?
Result block: yes

Query block: Lab log entry: "Cc1c(NC(=O)OC[C@@H]2COCCN2)cn2ncnc(Nc3ccc4c(cnn4Cc4cccc(F)c4)c3)c12" — outcome as called in the assay?
Result block: no

Query block: Fill in: this test's call for "Nc1nc(Nc2ccc(S(N)(=O)=O)cc2)nn1C(=O)c1c(F)cccc1F" is ___
Result block: no

Query block: Write down the call the test reported for this compound. Item: "c1ccc2c(CCNc3ccc(Nc4ccncc4)cc3)c[nH]c2c1"
Result block: no

Query block: I would be grateful if you could indicate the recorded call for "CS(=O)(=O)c1ccc(-c2cnc(N)c(C(=O)Nc3ccccc3)n2)cc1" .
Result block: no

Query block: Please share the test call associated with O=C1CCC[C@@H]2[C@H]3CCC[N+]4([O-])CCC[C@@H](CN12)[C@@H]34 (some centres undefined) .
Result block: no

Query block: Dear colleague, could you share the recorded outcome for CCOc1ccccc1OCCNC(C)Cc1ccc(OC)c(S(N)(=O)=O)c1 (centres undefined) when you have a moment?
Result block: no

Query block: Would you mind telling me which call this test gave O=C(O)C1(Cc2cccc(Nc3nccs3)n2)CCC(Oc2cccc(Cl)c2F)CC1 (centres undefined) ?
Result block: no

Query block: For "CCCNC(=O)Nc1ccc(Oc2ncnc3cc(OC)c(OC)cc23)cc1Cl" , which call appears in the assay record?
Result block: no

Query block: Recorded call for "NC(=O)c1c(OCc2c(F)cc(Br)cc2F)nsc1NC(=O)NCCCCN1CCCC1" ?
Result block: no

---

# TEST_SUMMARY: qHTS of pediatric cancer cell lines to identify multiple opportunities for drug repurposing: Confirmatory screen for BT-12 cells (AID 1347112);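 further: viability read after 48 h of compound exposure; nearly all actives have a fitted effect of over 55% in size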
# TEST_CONDITIONS: BT-12 rhabdoid tumor cells, viability; series mostly up to 45.9 µM
Inconclusive results are not listed. Activity calls are given as the source filed them. Calls come from the whole dose curve; as a rule, active = well fitted cell-killing curve with a large enough effect; inconclusive = small, poorly fitted or top-dose-only effect; inactive = flat fitted curve, though single readings scatter.
Assign a class; possible classes are 1 (active), 0 (inactive)

Query block: What classification did "COC(=O)[C@]12CCC(C)(C)C[C@@H]1[C@@H]1C(=O)C=C3[C@@]4(C)C=C(C#N)C(=O)C(C)(C)[C@@H]4CC[C@@]3(C)[C@]1(C)CC2" end up with in this test?
Result block: 1

Query block: Identify the outcome logged in this assay for the compound shown: "COc1cc2nccc(Oc3ccc(NC(=O)C4(C(=O)Nc5ccc(F)cc5)CC4)cc3)c2cc1OC"
Result block: 0

Query block: Recorded call for CC[C@@H]1C(=O)N(C)c2cnc(Nc3ccc(C(=O)NC4CCC(N5CCN(CC6CC6)CC5)CC4)cc3OC)nc2N1C(C)C (stereo partly specified) ?
Result block: 0

Query block: Write down the call the test reported for this compound. Item: "COc1cccc2c(NCc3ccccc3)nc(-n3c(N)nc4ccccc43)nc12"
Result block: 1

Query block: Hi team, can someone confirm the assay call for "CCNC(=O)Nc1ccc2ncc(Nc3ccc(C)cc3)nc2n1" ?
Result block: 0

Query block: Tell me the recorded outcome of this test for "Cc1ccc2nc(NC(=O)CSc3nc4c(c(=O)n3-c3ccccc3)SCC4)sc2c1" .
Result block: 1

Query block: Write down the call the test reported for this compound. Item: COc1ccc(-c2cc3c(C)nc(N)nc3n(C3CCC(OCCO)CC3)c2=O)cn1 (stereo unspecified)
Result block: 0

Query block: Returns: the outcome recorded for "Cc1[nH]c2ccccc2c1CCNCc1ccc(C=CC(=O)NO)cc1" in this assay.
Result block: 1

Query block: Any idea what this test logged for "CC(C)[C@H](C(=O)Nc1ccc(C(=O)NO)cc1)c1ccccc1" ?
Result block: 1

Query block: Just curious, what result did "Cc1nc(Nc2n[nH]c3c2CN(C(=O)N[C@H](CN(C)C)c2ccccc2)C3(C)C)c2sccc2n1" get here?
Result block: 1

Query block: Tell me the assay call for "CNC(=O)c1ccc(N2C(=S)N(c3cnc(C#N)c(C(F)(F)F)c3)C(=O)C23CCC3)cc1F" please.
Result block: 0

---

# System: Zika virus NS2B-NS3 protease (unlinked complex)
# TEST_SUMMARY: Primary screen GU Rhodamine qHTS for Zika virus inhibitors: Unlinked NS2B-NS3 protease assay (AID 1347159); further: nearly all actives have a fitted effect of over 60% in size; further: potency means the concentration at half of the fitted maximal effect
# TEST_CONDITIONS: Recombinant ZIKV NS2B-NS3 protease, Rhodamine110 substrate fluorescence; series mostly up to 107 µM
Records with an inconclusive call do not appear. Activity calls are given as the source filed them. Calls follow the shape of the dose curve; as a rule, active = well fitted inhibition curve with a large enough effect; inconclusive = small, poorly fitted or top-dose-only effect; inactive = no such curve, though single readings can be large or run the other way.
OBSERVATION_TYPE: Potency

Query block: Which Potency reading was recorded for the compound "Cc1c(C)n(Cc2ccc(-c3ccccc3C(=O)O)cc2)c2ccc(C(=O)N[C@@H](C)c3ccc([N+](=O)[O-])cc3)cc12" ?
Result block: 2.82 µM (active)

Query block: Which Potency value is on record for "C=CC(=O)Nc1cccc(Oc2nc(Nc3ccc(N4CCN(C)CC4)cc3)ncc2Cl)c1" ?
Result block: inactive

Query block: Can you share its Potency? I mean this compound: "CCNC(=O)Nc1ccc2ncc(Nc3ccc(C)cc3)nc2n1"
Result block: 25.1 µM (active)

Query block: # get_value(readout='Potency', item= "O=C(Nc1cn[nH]c1-c1nc2ccc(CN3CCOCC3)cc2[nH]1)NC1CC1" )
Result block: inactive

Query block: Quick check: Potency of "NC(=O)c1cccc2cn(-c3ccc([C@@H]4CCCNC4)cc3)nc12" ?
Result block: inactive

Query block: Record request: Potency value, item "COc1cc2c(cc1-c1c(C)noc1C)ncc1[nH]c(=O)n([C@H](C)c3ccccn3)c12"
Result block: inactive

---
Query block: Need Potency, item "Cc1nc(Nc2n[nH]c3c2CN(C(=O)N[C@H](CN(C)C)c2ccccc2)C3(C)C)c2sccc2n1"
Result block: inactive

Query block: Which Potency value belongs to "COc1cc2c(Nc3ccc(NC(=O)c4ccccc4)cc3)ncnc2cc1OCCCN1CCOCC1" ?
Result block: inactive

Query block: # query: Potency of entry "COc1cccc(-c2ccc(NC(=O)C3=C(C(=O)O)CCC3)c(F)c2)c1"
Result block: 17.8 µM (active)

---

# Tested on: KB-3-1
# TEST_SUMMARY: Cytotoxic Profiling of Annotated Libraries Using Quantitative High-Throughput Screening (AID 1296008); further: nearly all actives have a fitted effect of over 60% in size
# TEST_CONDITIONS: Five cell lines viability, CellTiter-Glo ATP luminescence, 48-72 h
# Procedure: Cell-based phenotypic screening is a commonly used approach to discover biological pathways, novel drug targets, chemical probes and high-quality hit-to-lead molecules. […] A pintool (Kalypsys) was used to transfer 23 nL of compound solution to the 1536-well assay plates. […] Plates were left at room temperature for 10 min before imaging the ATP-coupled luminescence using a ViewLux microplate imager (PerkinElmer, Waltham, MA).
Inconclusive results are not listed. Active and inactive are the calls of the source. Calls follow the shape of the dose curve; as a rule, active = well fitted inhibition curve with a large enough effect; inconclusive = small, poorly fitted or top-dose-only effect; inactive = flat fitted curve, though single readings scatter.
Permitted responses: 1 (active), -1 (inactive)

Query block: Hi, sorry to bother you, what did the test record for "CC1(C)O[C@@H]2C[C@@H]3[C@H]4C[C@@H](F)C5=CC(=O)C=C[C@]5(C)[C@@]4(F)[C@@H](O)C[C@]3(C)[C@]2(C(=O)CO)O1" ?
Result block: -1

Query block: Please state the recorded outcome for this compound: "O=C(O)CCCc1c[nH]c2ccccc12"
Result block: -1

Query block: Any idea what this test logged for "Cc1ccc(CN2CCNCC2)cc1NC(=O)CNc1ccc(F)c(F)c1" ?
Result block: -1

Query block: Assay result, entry "Nc1nc(Nc2ccc(S(N)(=O)=O)cc2)nn1C(=O)c1c(F)cccc1F" — outcome?
Result block: 1

Query block: What was the test verdict on "COCCn1c2c([n+](Cc3cnccn3)c1C)C(=O)c1ccccc1C2=O" ?
Result block: 1

Query block: What call does the record list for "O=C(NCCCNc1nc(Nc2cccc(NC(=O)N3CCCC3)c2)ncc1I)c1cccs1" ?
Result block: 1

Query block: Could you check what this test reported for "COc1cc2ncnc(Nc3ccc(F)c(Cl)c3)c2cc1NC(=O)C=CCN1CCCCC1" ?
Result block: -1

Query block: How was "CC(C)c1cnn2c(NCc3ccccc3)cc(N[C@@H](CO)[C@H](O)CO)nc12" classified in this test?
Result block: 1

Query block: # lookup: test call for "CNC(=O)c1ccc(N2C(=S)N(c3cnc(C#N)c(C(F)(F)F)c3)C(=O)C23CCC3)cc1F"
Result block: -1

Query block: Please state the recorded outcome for this compound: "CCNC(=O)Nc1ccc2ncc(Nc3ccc(C)cc3)nc2n1"
Result block: -1

Query block: Recorded test call requested for "CC1=C(CO)C(=O)O[C@@H]([C@@H](C)[C@H]2CC[C@H]3[C@@H]4C[C@H]5O[C@]56[C@@H](O)C=CC(=O)[C@]6(C)[C@@H]4CC[C@]23C)C1"
Result block: 1

Query block: GET /call?item= O=C(O)C1(Cc2cccc(Nc3nccs3)n2)CCC(Oc2cccc(Cl)c2F)CC1 (stereo not drawn) returns the recorded outcome of this test.
Result block: 1

Query block: Would you mind telling me which call this test gave "COc1ccc(OC)c(-c2nnc3ccc(-c4ccc(OC)c(O[C@@H]5CCOC5)c4)nn23)c1" ?
Result block: 1
